Test: gradient 5% acetonitrile 3 min, to 50% in 2 min, to 85% in 15 min, held 3 min, 100 µL/min
Details: column: Zorbax Extend-C18 2.1 x 50 mm; eluents: water / acetonitrile, 0.1% formic acid
Output schema: class label derived from RP-LC retention time. Mapping: low bin = under 700 s, mid bin = from 700 s up to 900 s, high bin = 900 s and over

# input Into which bin does this compound go? O=C(Nc1ccccc1F)C(=O)c1cn(CC(=O)N2CCCC2)c2ccccc12
# output high bin

# input Into which bin does this compound go? COCCNc1nc(-c2ccc(OC)cc2)nc2ccccc12
# output low bin

# input Into which bin does this compound go? Cc1ccc(-c2ccc(-n3nc(C)c(S(=O)(=O)NC4CC4)c3C)nn2)cc1
# output high bin

# input Into which bin does this compound go? CC(C)(C[C@@](O)(Cc1cc2ccncc2[nH]1)C(F)(F)F)c1cc(F)ccc1O
# output mid bin

# input Into which bin does this compound go? CCOC(=O)Cc1ccc(NC(=O)NC2CCN(c3ccc(F)cc3)C2=O)cc1 (centres undefined)
# output mid bin

# input Into which bin does this compound go? COc1ccc(C(=O)Nc2ccc3c(c2)Sc2ncccc2C(=O)N3C(C)C)c(OC)c1
# output high bin

# input Into which bin does this compound go? COCCN1C(=O)CCc2cc(NC(=O)CCc3ccccc3)ccc21
# output mid bin

# input Into which bin does this compound go? Cc1ccc(-c2cc(C(N)=O)[nH]n2)c(C)c1
# output low bin
